Entries with their measured Toxicity Data Heart, system Heart:

Solved cases below.
>  <Compound>
C=CCOC(=O)Oc1cc2c(cc1OC)[C@@]1(CS[C@@H]3c4c(OC(C)=O)c(C)c5c(c4[C@H](COC1=O)N1C3[C@H]3c4c(cc(C)c(OC)c4O)C[C@@H]([C@@H]1O)N3C)OCO5)NCC2 (some centres unmarked) [Compound 64]

>  <Toxicity Data Heart>
5.50E-08

$$$$
>  <Compound>
COc1cc2c(cc1O)CCN[C@]21CS[C@@H]2c3c(OC(C)=O)c(C)c4c(c3[C@H](COC1=O)N1C2[C@H]2c3c(cc(C)c(OC)c3OC(=O)OC(C)(C)C)C[C@@H]([C@@H]1O)N2C)OCO4 (some centres unmarked) [Compound 97]

>  <Toxicity Data Heart>
9.63E-08

$$$$
>  <Compound>
COc1cc2c(cc1OC(=O)OC(C)(C)C)CCN[C@]21CS[C@@H]2c3c(OC(C)=O)c(C)c4c(c3[C@H](COC1=O)N1C2[C@H]2c3c(cc(C)c(OC)c3OC(=O)OC(C)(C)C)C[C@@H]([C@@H]1O)N2C)OCO4 (some centres unmarked) [Compound 86]

>  <Toxicity Data Heart>
8.16E-08

$$$$

Looking for the measured Toxicity Data Heart of COc1cc2c(cc1OC(=O)OCc1ccccc1)CCN[C@]21CS[C@@H]2c3c(OC(C)=O)c(C)c4c(c3[C@H](COC1=O)N1C2[C@H]2c3c(cc(C)c(OC)c3O)C[C@@H]([C@@H]1O)N2C)OCO4 (some centres unmarked) [Compound 65] , can you help?
9.00E-09

* * *

- Tested on: MDA-MB-231
- Assay procedure: Inhibition of cells growth by colorimetric assay (SRB), MDA-MB-231
- Assay type: cell-based
- Condition summary: Homo sapiens, MDA-MB-231, 48 h, read-out: MB-231 LC50
So basically, if CC50 comes in under 0.008 µM it's label 1, and if it's 0.008 µM or more it's label 0.

>  <Compound>
COc1cc2c(cc1OC(=O)/C=C/c1ccccc1)CCN[C@]21CS[C@@H]2c3c(OC(C)=O)c(C)c4c(c3[C@H](COC1=O)N1C2[C@@H]2N[C@@H](Cc3cc(C)c(OC)c(O)c32)[C@@H]1O)OCO4 (stereo partly drawn) [Compound 212]

>  <Target desc>
MDA-MB-231

>  <Label>
label 0

$$$$
>  <Compound>
COc1cc2c(cc1OC(=O)OC(C)(C)C)CCN[C@]21CS[C@@H]2c3c(OC(=O)OC(C)(C)C)c(C)c4c(c3[C@H](COC1=O)N1C2[C@H]2c3c(cc(C)c(OC)c3O)C[C@@H]([C@@H]1O)N2C)OCO4 (stereo partly drawn) [Compound 173]

>  <Target desc>
MDA-MB-231

>  <Label>
label 0

$$$$
>  <Compound>
COc1cc2c(cc1O)CCN(C)[C@]21CS[C@@H]2c3c(OC(C)=O)c(C)c4c(c3[C@H](COC1=O)N1C2[C@@H]2N[C@@H](Cc3cc(C)c(OC)c(O)c32)[C@@H]1C#N)OCO4 (stereo partly drawn) [Compound 209]

>  <Target desc>
MDA-MB-231

>  <Label>
label 1

$$$$

Does COc1cc2c(cc1OC(=O)OC(C)(C)C)CCN[C@]21CS[C@@H]2c3c(OC(=O)OC(C)(C)C)c(C)c4c(c3[C@H](COC1=O)N1C2[C@H]2c3c(cc(C)c(OC)c3OC(=O)OC(C)(C)C)C[C@@H]([C@@H]1O)N2C)OCO4 (stereo partly drawn) [Compound 174] have CC50 strictly under 0.008 µM?
label 0

Does COc1cc2c(cc1O)CCN[C@]21CS[C@@H]2c3c(OC(C)=O)c(C)c4c(c3[C@H](COC1=O)N1C2[C@H]2c3c(cc(C)c(OC)c3OC(=O)OC(C)(C)C)C[C@@H]([C@@H]1O)N2C)OCO4 (stereo partly drawn) [Compound 97] have CC50 strictly under 0.008 µM?
label 0
